B1: glmS ribozyme (parent)
chain: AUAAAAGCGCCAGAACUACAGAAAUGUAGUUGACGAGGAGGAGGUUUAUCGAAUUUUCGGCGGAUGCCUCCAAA

- Variants of: B1
- Test Name: self-cleavage kobs at 640 uM GlcN6P; higher = faster cleavage; RNA array
- Condition Info: with glucosamine-6-phosphate
Fewer inactive variants are shown than the library holds.
Property Label: self-cleavage kobs at 640 uM GlcN6P (s⁻¹)
Give bare numbers, in s⁻¹.

Recorded results for 5 variants are shown here.
A52C C68G: 0.000126
A12G G32U: 0.000164
A12U G40U: 0.00235
C16U C68G: 5.77e-05
A42G A53C: 0.00271

For each of the variants below, state self-cleavage kobs at 640 uM GlcN6P.
1. G32A U49G
2. A14U G32C
3. A12C U54G G66U
4. A39U G66U
5. A14C C50G C70G

Reply |
1. 2.83e-05
2. 6.36e-05
3. 0.000245
4. 0.000735
5. 0.000437
